Numbers sourced from ChEMBL document CHEMBL3580637.

assay: Binding affinity to dA60.dT60 DNA (unknown origin) assessed as change in melting temperature at 10 uM by UV-Vis spectrophotometric analysis
Test readout: ΔTm (°C)
I only need the number, in °C, no unit after it.

Use these answered entries as a reference point.
C#CCCCCCCCCCOc1ccc(-c2nc3ccc(-c4nc5ccc(N6CCN(C)CC6)cc5[nH]4)cc3[nH]2)cc1 = 8
C#CCOc1ccc(-c2nc3ccc(-c4nc5ccc(N6CCN(C)CC6)cc5[nH]4)cc3[nH]2)cc1 = 22.9
C#CCOCCCCOc1ccc(-c2nc3ccc(-c4nc5ccc(N6CCN(C)CC6)cc5[nH]4)cc3[nH]2)cc1 = 23.4
CN1CCN(c2ccc3[nH]c(-c4ccc5[nH]c(-c6ccc(O)cc6)nc5c4)nc3c2)CC1 [HOECHST 33258] = 24.6
C#CCCCCOc1ccc(-c2nc3ccc(-c4nc5ccc(N6CCN(C)CC6)cc5[nH]4)cc3[nH]2)cc1 = 20.9

Below: the item to evaluate.
Give its ΔTm value. Item: CCOc1ccc(-c2nc3cc(-c4nc5cc(N6CCN(C)CC6)ccc5[nH]4)ccc3[nH]2)cc1
24.1

* * *

biological target: DNA topoisomerase 1 (Homo sapiens)
Test readout: pIC50
Quick note: pIC50 means taking -log10 of the concentration in moles per liter.

Identify the measured pIC50 of CN1CCN(c2ccc3[nH]c(-c4ccc5[nH]c(-c6ccc(O)cc6)nc5c4)nc3c2)CC1 for DNA topoisomerase 1 (Homo sapiens).
4.64

* * *

This listing pairs compounds with measured inhibition.
Target: DNA topoisomerase 1 (Homo sapiens) (UniProt P11387)
Sequence (whole entry): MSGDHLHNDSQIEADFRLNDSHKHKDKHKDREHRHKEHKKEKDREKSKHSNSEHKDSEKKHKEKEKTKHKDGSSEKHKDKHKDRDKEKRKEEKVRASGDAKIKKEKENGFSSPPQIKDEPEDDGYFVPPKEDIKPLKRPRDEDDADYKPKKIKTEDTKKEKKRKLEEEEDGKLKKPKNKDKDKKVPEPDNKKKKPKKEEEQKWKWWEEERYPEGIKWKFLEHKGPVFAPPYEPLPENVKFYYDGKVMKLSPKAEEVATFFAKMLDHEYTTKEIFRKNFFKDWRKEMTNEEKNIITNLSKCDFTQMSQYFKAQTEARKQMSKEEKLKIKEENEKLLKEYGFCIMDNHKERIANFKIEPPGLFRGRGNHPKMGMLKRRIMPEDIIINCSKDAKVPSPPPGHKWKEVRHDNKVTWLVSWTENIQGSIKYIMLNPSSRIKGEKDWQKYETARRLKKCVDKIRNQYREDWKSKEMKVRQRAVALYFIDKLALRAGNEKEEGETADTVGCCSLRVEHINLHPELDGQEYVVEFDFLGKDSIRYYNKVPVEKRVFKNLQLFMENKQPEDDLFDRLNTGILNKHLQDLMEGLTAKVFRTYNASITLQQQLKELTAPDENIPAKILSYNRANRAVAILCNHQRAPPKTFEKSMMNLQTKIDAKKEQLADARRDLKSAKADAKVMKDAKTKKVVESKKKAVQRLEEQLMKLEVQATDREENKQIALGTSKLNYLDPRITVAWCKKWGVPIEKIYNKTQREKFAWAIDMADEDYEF
Experiment: Inhibition of human DNA topoisomerase-1 using supercoiled pBAD-GFPuv plasmid DNA as substrate assessed as prevention of supercoiled DNA template from relaxation at 50 uM after 30 mins by agarose gel electrophoresis relative to control
Enter your answer as a number in %; do not include the unit.

What value of measured inhibition is listed for C#CCOCCCCOc1ccc(-c2nc3ccc(-c4nc5ccc(N6CCN(C)CC6)cc5[nH]4)cc3[nH]2)cc1 ?
5

Reported inhibition, compound C#CCCCCCCCCCOc1ccc(-c2nc3ccc(-c4nc5ccc(N6CCN(C)CC6)cc5[nH]4)cc3[nH]2)cc1 : ____
5

Requested read-out: inhibition. Entry: C#CCCCCOc1ccc(-c2nc3ccc(-c4nc5ccc(N6CCN(C)CC6)cc5[nH]4)cc3[nH]2)cc1
5

Query (compound): C#CCOc1ccc(-c2nc3ccc(-c4nc5ccc(N6CCN(C)CC6)cc5[nH]4)cc3[nH]2)cc1 ; field requested: inhibition
70
